B1: ZNF649 (parent)
chain: DECEKAYFYMSCLVKHKRIHSREK

Variants of: B1
methodSummary: protein stability index of a GFP-peptide fusion (GPS, HEK-293T) (PSI 1-6); higher = more stable;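 note: lentivirally expressed fusions sorted by FACS into six bins by GFP to DsRed ratio, PSI derived from sequencing read proportions per bin multiplied by bin number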
appliedConditions: c terminus: a fixed tail appended
experimentalReadout: protein stability index
Please state the value as a number alone, without comment.

Answered cases to consult:
DELEKAYFYMSCLVKHKRIHSREK [C3L] ... 1.8
DECEKAYFYMSCLVKHKNIHSREK [R18N] ... 3.21

Request: Reported protein stability index, variant DECEKAYFYMSTLVKHKRIHSREK [C12T] : ____
Result: 3.83

Request: Reported protein stability index, variant DECELAYFYMSCLVKHKRIHSREK [K5L] : ____
Result: 2.61

Request: Reported protein stability index, variant DECEKAYFYMSCLVKHKRIVSREK [H20V] : ____
Result: 2.24

Origin of values: the supplement of paper PMC10567573
